- Tested on: CCRF-CEM
- measurementProtocol: Induction of apoptosis in human CEM cells using propidium iodide staining at 5 times IC50 concentration after 24 hrs by flow cytometry
- Assay type: functional
measureName: Activity (%)
Report as a plain number; the unit % is understood.

Below, 4 compounds whose answers are already recorded.
QUERY: Identify measured Activity corresponding to CCCCCCCCOC(c1ccc([N+](=O)[O-])cc1)c1cn([C@@H]2O[C@H](CO)[C@@H](O)[C@H]2O)c(=O)[nH]c1=O (stereo in doubt; (-)-8h)
RESULT: 71

QUERY: Identify measured Activity corresponding to Nc1nc(F)nc2c1ncn2[C@@H]1O[C@H](CO)[C@@H](O)[C@@H]1O
RESULT: 74.84

QUERY: Identify measured Activity corresponding to Nc1nc2[nH]cnc2c(=S)[nH]1
RESULT: 18.69

QUERY: Identify measured Activity corresponding to CCCCCCCCCOC(c1ccc([N+](=O)[O-])cc1)c1cn([C@@H]2O[C@H](CO)[C@@H](O)[C@H]2O)c(=O)[nH]c1=O (stereo in doubt; (+)-7i)
RESULT: 83

---
QUERY: Identify measured Activity corresponding to CCCCCCCCOC(c1ccc([N+](=O)[O-])cc1)c1cn([C@@H]2O[C@H](CO)[C@@H](O)[C@H]2O)c(=O)[nH]c1=O (single isomer, unassigned; (+))
RESULT: 76
